biological target: ERK2 kinase (Homo sapiens (Human), UniProt P28482); assay: In vitro enzyme activity assay, ERK2 kinase (Z'-LYTE); assay type: biochemical; conditions: class symbols; read-out: ERK2 IC50
Sequence (P28482 whole entry): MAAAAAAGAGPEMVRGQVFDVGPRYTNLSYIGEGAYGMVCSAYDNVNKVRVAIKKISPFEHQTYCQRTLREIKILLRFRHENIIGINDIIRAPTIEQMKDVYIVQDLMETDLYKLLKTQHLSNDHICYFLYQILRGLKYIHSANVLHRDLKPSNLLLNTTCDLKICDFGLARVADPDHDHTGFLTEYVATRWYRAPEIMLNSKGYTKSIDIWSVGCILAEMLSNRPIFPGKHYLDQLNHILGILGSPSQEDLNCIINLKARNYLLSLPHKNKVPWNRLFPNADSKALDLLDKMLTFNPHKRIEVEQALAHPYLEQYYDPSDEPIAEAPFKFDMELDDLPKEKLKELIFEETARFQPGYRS
measurement-label: IC50

These recorded examples may help you get a feel for the data.
> print(dat)
                                   compound  measurement.label  recorded.result
1  Cn1nccc1Nc1cc(-c2cc(F)c3c(c2)CCN3C(=O)Cc2ccccc2Cl)ccn1               IC50          ≤ 10 nM
2  Cn1nccc1Nc1nccc(-c2cc(F)c3c(c2)CCN3C(=O)Cc2cccc(F)c2Cl)n1               IC50     10 to 100 nM
3  Cn1nccc1Nc1cc(-c2cc(F)c3c(c2)CCN3C(=O)Cc2ncccc2Cl)ccn1               IC50     10 to 100 nM
4  O=C(Cc1cccnc1Cl)N1CCc2cc(-c3ccnc(NC4CC(O)C4)c3)cc(F)c21 (racemic)               IC50   100 to 1000 nM
5  Cn1nc(CO)cc1Nc1cc(-c2cc(F)c3c(c2)CCN3C(=O)Cc2cccnc2Cl)ccn1               IC50     10 to 100 nM
6  Cn1nccc1Nc1nccc(-c2cc(F)c3c(c2)CCN3C(=O)Cc2ccncc2Cl)n1               IC50     10 to 100 nM
7  Cc1cnc(Nc2ccnn2C)nc1-c1cc(F)c2c(c1)CCN2C(=O)Cc1cccnc1Cl               IC50          ≤ 10 nM

# input for lookup
Find the recorded IC50 belonging to Cn1nccc1Nc1nccc(-c2cc(F)c3c(c2)CCN3C(=O)Cc2cnccc2Cl)n1 and report it.
10 to 100 nM

Data credit: patent US11465984B2
